Assay: PAX8 transcriptional activity inhibition in RMG-I – RMG-I cells, luciferase, single concentration, primary screen (AID 652154);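 note: luciferase light reporting Pax8 driven TPO promoter activity; plate controls were median of neutral control wells for no effect and mitoxantrone controls for full effect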
Details: RMG-I TPO-luciferase reporter, SteadyGlo, 24 h; at 12.6 µM; stronger effect = higher value
Among all 360,000 compounds or so, about 4,200 (1.2%) were called active. Only a selection was taken, and actives are over-represented in it overall.

{"columns": ["structure", "inhibition (%)"],
 "data": [
  ["CC(C)=CCc1ccc(O)c(=O)cc1C(C)C", 79.1],
  ["O=c1cc(O)c(-c2cccc(C(F)(F)F)c2)c(Cl)[nH]1", 4.02],
  ["COC(=O)[C@@]1(Cc2ccc(OC)cc2)[C@H]2c3cc(C(=O)N4CCCC4)n(Cc4ccc(OC(F)(F)F)cc4)c3C[C@H]2CN1C(=O)c1ccccc1", 77],
  ["CC(C)NC(=O)N(C)C[C@@H]1OCCCC[C@@H](C)Oc2ccc(NC(=O)Cc3ccccc3)cc2C(=O)N([C@H](C)CO)C[C@H]1C", 20.4],
  ["C[C@@H]1CN([C@H](C)CO)C(=O)Cc2cc(NC(=O)Nc3ccc4c(c3)OCO4)ccc2O[C@H]1CN(C)Cc1ccc(C(F)(F)F)cc1", 13.6],
  ["CN(C)C=NC(=O)c1cccn1-c1ncc(C(F)(F)F)cc1Cl", 5.77],
  ["COc1ccc(C[C@@H]2CCc3cnnn3COC[C@H](c3ccccc3)NC2=O)cc1", 1.19],
  ["COCC#Cc1ccc([C@H]2[C@H]3CN(Cc4ccncc4)CCCCN3[C@H]2CO)cc1", 12.1],
  ["CCCNC(=O)N1CC2(C1)[C@H](c1ccccc1)[C@@H](CO)N2Cc1cccc(Cl)c1", 8.51],
  ["C[C@@H](O)C#Cc1ccc2c(c1)O[C@@H](CN(C)C)[C@@H](C)CN([C@@H](C)CO)S2(=O)=O", -0.827],
  ["CN(C)C(=O)[C@@H]1[C@@H](CO)[C@@H]2Cn3c(cccc3=O)[C@@H]2N1C(=O)C1CCC1", -6.21]
]}
